System: Haemophilus influenzae SOL AMP R | Read-out: MIC
Unit µg/mL implied. Number only.

Here is how some molecules turned out for MIC.
{"columns": ["smiles-record", "assayed-target", "reading-unit", "MIC"],
 "data": [
  ["CC[C@H]1OC(=O)[C@H](C)[C@@H](O[C@H]2C[C@@](C)(OC)[C@@H](O)[C@H](C)O2)[C@H](C)[C@@H](O[C@@H]2O[C@H](C)C[C@H](N(C)C)[C@H]2O)[C@](C)(O)C[C@@H](C)[C@@H](N2CCC(=O)CC2)[C@H](C)[C@@H](O)[C@]1(C)O", "Haemophilus influenzae SOL AMP R", "µg/mL", 0.5],
  ["CC[C@H]1OC(=O)[C@H](C)[C@@H](O[C@H]2C[C@@](C)(OC)[C@@H](O)[C@H](C)O2)[C@H](C)[C@@H](O[C@@H]2O[C@H](C)C[C@H](N(C)C)[C@H]2O)[C@](C)(O)C[C@@H](C)[C@@H](N2CCC(OC)(OC)CC2)[C@H](C)[C@@H](O)[C@]1(C)O", "Haemophilus influenzae SOL AMP R", "µg/mL", 1],
  ["CC[C@H]1OC(=O)[C@H](C)[C@@H](O[C@H]2C[C@@](C)(OC)[C@@H](O)[C@H](C)O2)[C@H](C)[C@@H](O[C@@H]2O[C@H](C)C[C@H](N(C)C)[C@H]2O)[C@](C)(O)C[C@@H](C)[C@@H](N2CCCCC2)[C@H](C)[C@@H](O)[C@]1(C)O", "Haemophilus influenzae SOL AMP R", "µg/mL", 1]
]}

MIC value, target or system Haemophilus influenzae SOL AMP R, for CC[C@H]1OC(=O)[C@H](C)[C@@H](O[C@H]2C[C@@](C)(OC)[C@@H](O)[C@H](C)O2)[C@H](C)[C@@H](O[C@@H]2O[C@H](C)C[C@H](N(C)C)[C@H]2O)[C@](C)(O)C[C@@H](C)[C@@H](N2CCOCC2)[C@H](C)[C@@H](O)[C@]1(C)O : 2

###

Measured MIC, listed per entry for reference.
# System: Streptococcus pyogenes 930 CONST
# protocol-text: In vitro antibacterial activity, agar dilution MIC
# Type: cell-based
# test-context: 930CONST

Here is how some compounds turned out for MIC.
{"columns": ["compound", "MIC"],
 "data": [
  ["CC[C@H]1OC(=O)[C@H](C)[C@@H](O[C@H]2C[C@@](C)(OC)[C@@H](O)[C@H](C)O2)[C@H](C)[C@@H](O[C@@H]2O[C@H](C)C[C@H](N(C)C)[C@H]2O)[C@](C)(O)C[C@@H](C)[C@@H](N2CCOCC2)[C@H](C)[C@@H](O)[C@]1(C)O [Example 19]", "> 100 µg/mL"],
  ["CC[C@H]1OC(=O)[C@H](C)[C@@H](O[C@H]2C[C@@](C)(OC)[C@@H](O)[C@H](C)O2)[C@H](C)[C@@H](O[C@@H]2O[C@H](C)C[C@H](N(C)C)[C@H]2O)[C@](C)(O)C[C@@H](C)[C@@H](N2CCNCC2)[C@H](C)[C@@H](O)[C@]1(C)O [Example 15]", "> 100 µg/mL"],
  ["CC[C@H]1OC(=O)[C@H](C)[C@@H](O[C@H]2C[C@@](C)(OC)[C@@H](O)[C@H](C)O2)[C@H](C)[C@@H](O[C@@H]2O[C@H](C)C[C@H](N(C)C)[C@H]2O)[C@](C)(O)C[C@@H](C)[C@@H](N2CCC(C)CC2)[C@H](C)[C@@H](O)[C@]1(C)O [Example 6]", "> 100 µg/mL"]
]}

So for CC[C@H]1OC(=O)[C@H](C)[C@@H](O[C@H]2C[C@@](C)(OC)[C@@H](N)[C@H](C)O2)[C@H](C)[C@@H](O[C@@H]2O[C@H](C)C[C@H](N(C)C)[C@H]2O)[C@](C)(O)C[C@@H](C)[C@@H](N2CCCCC2)[C@H](C)[C@@H](O)[C@]1(C)O [Example 31] , the logged MIC turned out to be > 100 µg/mL

###

# System: Streptococcus agalactiae CMX 508
# protocol-text: In vitro antibacterial activity, agar dilution MIC
# Format: cell-based
# test-context: CMX508, S. agalactiae CMX 508, Brain Heart Infusion agar, 20-24 hours, read-out: MIC
Measured MIC, listed per entry for reference.
Unit µg/mL implied. Number only.

So for CC[C@H]1OC(=O)[C@H](C)[C@@H](O[C@H]2C[C@@](C)(OC)[C@@H](O)[C@H](C)O2)[C@H](C)[C@@H](O[C@@H]2O[C@H](C)C[C@H](N(C)C)[C@H]2O)[C@](C)(O)C[C@@H](C)[C@@H](N2CCCC2)[C@H](C)[C@@H](O)[C@]1(C)O [Example 3] , the logged MIC turned out to be 0.2

So for CC[C@H]1OC(=O)[C@H](C)[C@@H](O[C@H]2C[C@@](C)(OC)[C@@H](O)[C@H](C)O2)[C@H](C)[C@@H](O[C@@H]2O[C@H](C)C[C@H](N(C)C)[C@H]2O)[C@](C)(O)C[C@@H](C)[C@@H](N2CCS(=O)(=O)CC2)[C@H](C)[C@@H](O)[C@]1(C)O [Example 22] , the logged MIC turned out to be 0.39

###

# Tested on: Staphylococcus aureus CMX 503A
# protocol-text: In vitro antibacterial activity, agar dilution MIC
# Assay type: cell-based
# test-context: CMX503A, S. aureus CMX 503A, Brain Heart Infusion agar, 20-24 hours, read-out: MIC
measured-metric: MIC (µg/mL)
Unit µg/mL implied. Number only.

MIC value, target or system Staphylococcus aureus CMX 503A, for CC[C@H]1OC(=O)[C@H](C)[C@@H](O[C@H]2C[C@@](C)(OC)[C@@H](N)[C@H](C)O2)[C@H](C)[C@@H](O[C@@H]2O[C@H](C)C[C@H](N(C)C)[C@H]2O)[C@](C)(O)C[C@@H](C)[C@@H](N2CCCCC2)[C@H](C)[C@@H](O)[C@]1(C)O [Example 31] : 0.78

###

# Tested on: Streptococcus agalactiae CMX 508
# protocol-text: In vitro antibacterial activity, agar dilution MIC
# Type: cell-based
# test-context: CMX508, S. agalactiae CMX 508, Brain Heart Infusion agar, 20-24 hours, read-out: MIC
# Method: The antimicrobial spectra of a number of compounds of the invention were tested by the following method: Twelve petri dishes containing successive aqueous dilutions of the test compound mixed with 10 ml of sterilized Brain Heart Infusion agar (Difco 0418-01-5) are prepared. […] After incubation, each disk is read. […]
measured-metric: MIC
Hi, when you answer, please include the unit after the number. Thanks!

{"columns": ["molecule", "assayed-target", "measured-metric", "value-reported"],
 "data": [
  ["CC[C@H]1OC(=O)[C@H](C)[C@@H](O[C@H]2C[C@@](C)(OC)[C@@H](O)[C@H](C)O2)[C@H](C)[C@@H](O[C@@H]2O[C@H](C)C[C@H](N(C)C)[C@H]2O)[C@](C)(O)C[C@@H](C)[C@@H](N2CCNCC2)[C@H](C)[C@@H](O)[C@]1(C)O [Example 15]", "Streptococcus agalactiae CMX 508", "MIC", "1.56 µg/mL"],
  ["CC[C@H]1OC(=O)[C@H](C)[C@@H](O[C@H]2C[C@@](C)(OC)[C@@H](N)[C@H](C)O2)[C@H](C)[C@@H](O[C@@H]2O[C@H](C)C[C@H](N(C)C)[C@H]2O)[C@](C)(O)C[C@@H](C)[C@@H](N2CCOCC2)[C@H](C)[C@@H](O)[C@]1(C)O [Example 33]", "Streptococcus agalactiae CMX 508", "MIC", "0.1 µg/mL"]
]}

So for CC[C@H]1OC(=O)[C@H](C)[C@@H](O[C@H]2C[C@@](C)(OC)[C@@H](O)[C@H](C)O2)[C@H](C)[C@@H](O[C@@H]2O[C@H](C)C[C@H](N(C)C)[C@H]2O)[C@](C)(O)C[C@@H](C)[C@@H](N2CCCCC2)[C@H](C)[C@@H](O)[C@]1(C)O [Example 5] , the logged MIC turned out to be 0.05 µg/mL

###

Measured MIC, listed per entry for reference.
# System: Escherichia coli H560
# protocol-text: In vitro antibacterial activity, agar dilution MIC
# Format: cell-based
# test-context: H560
Unit µg/mL implied. Number only.

{"columns": ["molecule", "MIC [µg/mL]"],
 "data": [
  ["CC[C@H]1OC(=O)[C@H](C)[C@@H](O[C@H]2C[C@@](C)(OC)[C@@H](O)[C@H](C)O2)[C@H](C)[C@@H](O[C@@H]2O[C@H](C)C[C@H](N(C)C)[C@H]2O)[C@](C)(O)C[C@@H](C)[C@@H](N2CC2)[C@H](C)[C@@H](O)[C@]1(C)O [Example 4]", 25],
  ["CC[C@H]1OC(=O)[C@H](C)[C@@H](O[C@H]2C[C@@](C)(OC)[C@@H](O)[C@H](C)O2)[C@H](C)[C@@H](O[C@@H]2O[C@H](C)C[C@H](N(C)C)[C@H]2O)[C@](C)(O)C[C@@H](C)[C@@H](N2CCCC(C)(C)C2)[C@H](C)[C@@H](O)[C@]1(C)O [Example 1]", 6.2],
  ["CC[C@H]1OC(=O)[C@H](C)[C@@H](O[C@H]2C[C@@](C)(OC)[C@@H](O)[C@H](C)O2)[C@H](C)[C@@H](O[C@@H]2O[C@H](C)C[C@H](N(C)C)[C@H]2O)[C@](C)(O)C[C@@H](C)[C@@H](N2CCCCC2)[C@H](C)[C@@H](O)[C@]1(C)O [Example 5]", 25],
  ["CC[C@H]1OC(=O)[C@H](C)[C@@H](O[C@H]2C[C@@](C)(OC)[C@@H](O)[C@H](C)O2)[C@H](C)[C@@H](O[C@@H]2O[C@H](C)C[C@H](N(C)C)[C@H]2O)[C@](C)(O)C[C@@H](C)[C@@H](N2CCN(C(=O)OCc3ccccc3)CC2)[C@H](C)[C@@H](O)[C@]1(C)O [Example 18]", 50],
  ["CC[C@H]1OC(=O)[C@H](C)[C@@H](O[C@H]2C[C@@](C)(OC)[C@@H](O)[C@H](C)O2)[C@H](C)[C@@H](O[C@@H]2O[C@H](C)C[C@H](N(C)C)[C@H]2O)[C@](C)(O)C[C@@H](C)[C@@H](N2CCN(C(C)=O)CC2)[C@H](C)[C@@H](O)[C@]1(C)O [Example 16]", 50]
]}

Next item in the queue.
So for CC[C@H]1OC(=O)[C@H](C)[C@@H](O[C@H]2C[C@@](C)(OC)[C@@H](O)[C@H](C)O2)[C@H](C)[C@@H](O[C@@H]2O[C@H](C)C[C@H](N(C)C)[C@H]2O)[C@](C)(O)C[C@@H](C)[C@@H](N2CCOCC2)[C@H](C)[C@@H](O)[C@]1(C)O [Example 19] , the logged MIC turned out to be 6.2
